Test system: L. mexicana axenic amastigotes
Assay: Antileishmanial evaluation on axenic amastigotes (resazurin)
Type: cell-based
Conditions: Leishmania mexicana, 72 h, 72 h treatment, 32 °C; read-out: IC50 (µM) ± SD L. mexicana axenic amastigotes
Give measured IC50 for each item. Keep answers brief.

Please review the following examples before continuing.
>  <molecule>
O=C(NCc1ccccc1)c1ccc2nc(-c3ccccc3)c(-c3ccccc3)nc2c1 [compound 46]

>  <system>
L. mexicana axenic amastigotes

>  <measured-attribute>
IC50

>  <assay-value>
7.69 µM

$$$$
>  <molecule>
Nc1nc2c(ncn2C2OC(Cn3cc(-c4ccc(-c5ccccc5)cc4)nn3)C(O)C2O)c(=O)[nH]1 (stereo not shown) [compound 83]

>  <system>
L. mexicana axenic amastigotes

>  <measured-attribute>
IC50

>  <assay-value>
30.6 µM

$$$$
>  <molecule>
CC(C)(C)c1ccc(CN2CCN(c3ccnc4cc(Cl)ccc34)CC2)cc1 [compound 100, reference compound]

>  <system>
L. mexicana axenic amastigotes

>  <measured-attribute>
IC50

>  <assay-value>
30 to 50 µM

$$$$

Q: For the molecule Clc1ccc2nc(COCCn3cc(-c4ccc(-c5ccccc5)cc4)nn3)ccc2c1 [compound 92] , give its reported IC50.
A: 43.1 µM
